- System: DU-145
- ASSAY_INFO: Antiproliferative activity against human DU145 cells after 48 hrs by MTT assay
- Assay type: functional, cell-based
- ASSAY_CONTEXT: DU-145, 48 h
pIC50: −log10 of the molar value.
Use t when the recorded pIC50 is no lower than 5; use f when it is lower.

INSERT INTO measurements (record_smiles, system, class_label) VALUES
  ('Cc1ccc(-c2nc(C(c3c[nH]c4ccc(Br)cc34)c3c[nH]c4ccc(Br)cc34)cc3c2[nH]c2ccccc23)cc1', 'DU-145', 't'),
  ('COc1cc(-c2nc(C(c3c(C)[nH]c4ccc([N+](=O)[O-])cc34)c3c(C)[nH]c4ccc([N+](=O)[O-])cc34)cc3c2[nH]c2ccccc23)cc(OC)c1OC', 'DU-145', 'f'),
  ('COc1ccc(-c2nc(C(c3c(C)[nH]c4ccc([N+](=O)[O-])cc34)c3c(C)[nH]c4ccc([N+](=O)[O-])cc34)cc3c2[nH]c2ccccc23)cc1', 'DU-145', 'f'),
  ('Cc1[nH]c2ccc([N+](=O)[O-])cc2c1C(c1cc2c([nH]c3ccccc32)c(-c2ccc(F)cc2)n1)c1c(C)[nH]c2ccc([N+](=O)[O-])cc12', 'DU-145', 'f'),
  ('COc1ccc2[nH]cc(C(c3cc4c([nH]c5ccccc54)c(-c4ccc(C)cc4)n3)c3c[nH]c4ccc(OC)cc34)c2c1', 'DU-145', 'f');

---

Readings of IC50 for the listed compounds
- Test system: MCF7
- ASSAY_INFO: Antiproliferative activity against human MCF7 cells after 48 hrs by MTT assay
- Format: functional, cell-based
- ASSAY_CONTEXT: MCF7, 48 h
ASSAY_ENDPOINT: IC50 (µM)

INSERT INTO assay_data (compound, measurement_unit, value_observed) VALUES
  ('COc1ccc(-c2nc(C(c3c(C)[nH]c4ccc([N+](=O)[O-])cc34)c3c(C)[nH]c4ccc([N+](=O)[O-])cc34)cc3c2[nH]c2ccccc23)cc1', 'µM', 25.3),
  ('Cc1ccc(-c2nc(C(c3c(C)[nH]c4ccc([N+](=O)[O-])cc34)c3c(C)[nH]c4ccc([N+](=O)[O-])cc34)cc3c2[nH]c2ccccc23)cc1', 'µM', 22.8),
  ('Cc1[nH]c2ccc([N+](=O)[O-])cc2c1C(c1cc2c([nH]c3ccccc32)c(-c2ccc(F)cc2)n1)c1c(C)[nH]c2ccc([N+](=O)[O-])cc12', 'µM', 27.7),
  ('COc1ccc(-c2nc(C(c3c[nH]c4ccccc34)c3c[nH]c4ccccc34)cc3c2[nH]c2ccccc23)cc1', 'µM', 38.1),
  ('Fc1ccc(-c2nc(C(c3c[nH]c4ccccc34)c3c[nH]c4ccccc34)cc3c2[nH]c2ccccc23)cc1', 'µM', 8.5),
  ('COc1cc(-c2nc(C(c3c(C)[nH]c4ccc([N+](=O)[O-])cc34)c3c(C)[nH]c4ccc([N+](=O)[O-])cc34)cc3c2[nH]c2ccccc23)cc(OC)c1OC', 'µM', 33.1),
  ('N#Cc1ccc2[nH]cc(C(c3cc4c([nH]c5ccccc54)c(-c4ccc(F)cc4)n3)c3c[nH]c4ccccc34)c2c1 (configuration not stated)', 'µM', 26.3);
